Overview of recorded IC50 for various compounds
Target: N-type calcium channel (NTCC) (Homo sapiens, UniProt Q00975)
Construct: host or cells: IMR32 cells differentiated with dibutyryl cAMP and bromodeoxyuridine
Sequence (Q00975 whole entry): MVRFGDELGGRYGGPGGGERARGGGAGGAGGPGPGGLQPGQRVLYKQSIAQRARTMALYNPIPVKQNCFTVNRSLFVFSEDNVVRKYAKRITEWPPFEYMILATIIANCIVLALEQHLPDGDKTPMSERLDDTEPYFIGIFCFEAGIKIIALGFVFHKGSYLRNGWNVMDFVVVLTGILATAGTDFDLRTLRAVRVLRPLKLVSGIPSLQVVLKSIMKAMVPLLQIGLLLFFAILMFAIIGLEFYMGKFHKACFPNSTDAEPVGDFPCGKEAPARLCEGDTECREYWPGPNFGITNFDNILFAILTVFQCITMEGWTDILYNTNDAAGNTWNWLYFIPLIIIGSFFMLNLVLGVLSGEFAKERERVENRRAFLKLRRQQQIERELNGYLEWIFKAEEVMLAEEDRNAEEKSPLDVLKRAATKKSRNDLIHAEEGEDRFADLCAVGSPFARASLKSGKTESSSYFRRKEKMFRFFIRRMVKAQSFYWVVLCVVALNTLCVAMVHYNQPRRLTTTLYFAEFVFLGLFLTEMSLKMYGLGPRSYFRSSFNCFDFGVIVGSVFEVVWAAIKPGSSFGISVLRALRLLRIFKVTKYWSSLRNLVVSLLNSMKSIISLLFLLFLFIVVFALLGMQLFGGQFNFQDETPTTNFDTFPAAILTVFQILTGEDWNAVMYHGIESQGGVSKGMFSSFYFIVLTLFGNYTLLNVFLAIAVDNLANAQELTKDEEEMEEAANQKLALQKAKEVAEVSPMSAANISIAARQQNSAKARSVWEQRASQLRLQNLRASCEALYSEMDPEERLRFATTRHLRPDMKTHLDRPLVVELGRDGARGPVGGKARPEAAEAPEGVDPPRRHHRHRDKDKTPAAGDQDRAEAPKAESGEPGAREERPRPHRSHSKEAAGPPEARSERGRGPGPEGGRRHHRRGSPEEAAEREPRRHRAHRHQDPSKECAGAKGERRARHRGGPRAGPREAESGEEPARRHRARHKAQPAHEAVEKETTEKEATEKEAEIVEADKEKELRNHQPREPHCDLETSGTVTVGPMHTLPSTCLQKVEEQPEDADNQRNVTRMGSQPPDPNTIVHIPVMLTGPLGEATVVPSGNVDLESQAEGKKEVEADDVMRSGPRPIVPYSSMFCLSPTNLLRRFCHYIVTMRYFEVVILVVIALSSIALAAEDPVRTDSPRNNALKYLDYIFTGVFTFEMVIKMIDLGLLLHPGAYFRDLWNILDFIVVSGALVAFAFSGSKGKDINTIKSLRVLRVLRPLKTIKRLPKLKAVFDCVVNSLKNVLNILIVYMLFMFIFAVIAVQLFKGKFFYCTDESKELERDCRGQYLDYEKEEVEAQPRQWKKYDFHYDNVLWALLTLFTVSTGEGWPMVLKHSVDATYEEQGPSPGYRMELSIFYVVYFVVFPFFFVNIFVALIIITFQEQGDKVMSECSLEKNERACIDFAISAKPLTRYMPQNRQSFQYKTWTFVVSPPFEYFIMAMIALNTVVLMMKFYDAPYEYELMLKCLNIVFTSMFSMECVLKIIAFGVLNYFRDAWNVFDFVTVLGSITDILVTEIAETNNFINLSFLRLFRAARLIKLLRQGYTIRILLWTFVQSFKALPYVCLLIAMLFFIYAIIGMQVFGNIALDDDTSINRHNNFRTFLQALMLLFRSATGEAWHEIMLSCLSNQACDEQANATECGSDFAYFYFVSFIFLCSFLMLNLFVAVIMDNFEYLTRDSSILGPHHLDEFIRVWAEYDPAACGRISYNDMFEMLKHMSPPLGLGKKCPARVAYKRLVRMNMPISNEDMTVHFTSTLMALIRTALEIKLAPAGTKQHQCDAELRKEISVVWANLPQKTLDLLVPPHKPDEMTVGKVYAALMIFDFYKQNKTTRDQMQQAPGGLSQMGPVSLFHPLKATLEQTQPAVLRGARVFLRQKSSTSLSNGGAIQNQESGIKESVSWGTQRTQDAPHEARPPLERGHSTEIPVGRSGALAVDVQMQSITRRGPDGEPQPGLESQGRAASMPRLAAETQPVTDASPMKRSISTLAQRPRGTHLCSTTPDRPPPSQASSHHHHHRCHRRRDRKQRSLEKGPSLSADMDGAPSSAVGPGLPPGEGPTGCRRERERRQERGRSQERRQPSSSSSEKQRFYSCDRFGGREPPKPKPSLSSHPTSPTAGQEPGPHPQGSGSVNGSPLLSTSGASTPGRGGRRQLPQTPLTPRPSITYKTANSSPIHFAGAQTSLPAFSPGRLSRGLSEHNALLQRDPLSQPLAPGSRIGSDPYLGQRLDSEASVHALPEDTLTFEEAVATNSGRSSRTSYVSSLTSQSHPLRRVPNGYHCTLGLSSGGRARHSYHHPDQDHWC
Assay: FLIPR calcium mobilization assay for N-type calcium channel (differentiated IMR32 cells)
Format: cell-based
Details: about 1.0 μM or less; calcium mobilization and/or electrophysiological assay

{"columns": ["structure-smiles", "result-value"],
 "data": [
  ["O=S(=O)(c1ccc(NC2CC2)nc1)N1CCC(=NOCc2cccc(C(F)(F)F)c2)CC1", "≤ 1 µM"],
  ["O=S(=O)(c1cccc(Cl)c1)N1CCC(=NOC(c2ccc(F)cc2)c2ccc(F)cc2)CC1", "≤ 1 µM"],
  ["CCCCc1ccc(S(=O)(=O)N2CCC(=NOCc3ccncc3)CC2)cc1", "≤ 1 µM"],
  ["COc1cc(CON=C2CCN(S(=O)(=O)c3ccc(OC(F)(F)F)cc3)CC2)cc(Cl)n1", "≤ 1 µM"],
  ["COc1ncccc1CON=C1CCN(S(=O)(=O)c2ccc(OC(F)(F)F)cc2)CC1", "≤ 1 µM"]
]}

Record for N#Cc1ccccc1S(=O)(=O)N1CCC(=NOC(c2ccc(F)cc2)c2ccc(F)cc2)CC1 under target or system N-type calcium channel (NTCC) (Homo sapiens, UniProt Q00975): IC50 reported as ≤ 1 µM

For the compound CCCCc1ccc(S(=O)(=O)N2CCC(=NOCC3CCCCC3)CC2)cc1 , the measured IC50 on N-type calcium channel (NTCC) (Homo sapiens, UniProt Q00975) was ≤ 1 µM

CCCCc1ccc(S(=O)(=O)N2CCC(=NOCc3cccnc3)CC2)cc1 tested on N-type calcium channel (NTCC) (Homo sapiens, UniProt Q00975) gave IC50: ≤ 1 µM
